This collection of values is drawn from the Human Domainome abundance scans (Beltran et al. 2025).

B1: Triacylglycerol hydrolase DDHD2, residues 389 to 447; numbered along this chain, O94830 (parent)
chain: TLEEDLKKLQLSEFFDIFEKEKVDKEALALCTDRDLQEIGIPLGPRKKILNYFSTRKNS

Variants of: B1
Assay: abundance fitness (aPCA) (normalised: wild type 0, dead -1); higher = more abundant; growth selection in yeast, the domain comes from the species named
Settings: Homo sapiens
# if value of abundance fitness reaches -0.3, tag MET; if it stays below, tag NOT MET

> print(dat)
    changes  assigned.label
 1     A29T             MET
 2     D16T             MET
 3     D33L         NOT MET
 4     D16H             MET
 5     S12L             MET
 6     Q10Y             MET
 7     L11N         NOT MET
 8      E4W         NOT MET
 9     S12G             MET
10      E3H         NOT MET
11     I41H         NOT MET
12     E19P         NOT MET
13     I39M             MET
14     L28Q         NOT MET
15     K47W         NOT MET
16     I49S             MET
17     K48L             MET
18     K48D             MET
19     T55Q             MET
20     K25F             MET
21     F15M             MET
22     P42T         NOT MET
23     K48M             MET
24     A29F             MET
25     G40C         NOT MET
26     V23C         NOT MET
27     D35V         NOT MET
28      K7A             MET
29     Y52F             MET
30     P42R         NOT MET
31     A29C             MET
32     F18K             MET
33      K7F             MET
34     K48C         NOT MET
35     G40Q             MET
36      E3K             MET
37     K25I             MET
38     E26M             MET
39     E21C             MET
40     F14V         NOT MET
41     S54Q             MET
42     T55D             MET
43     E21Y             MET
44     S59D             MET
45     S59P             MET
46     K48H             MET
47     F53L         NOT MET
48     S54V         NOT MET
49     T32G         NOT MET
50     D24N             MET
51     E38F         NOT MET
52     K22S             MET
53     R46T             MET
54     I49K         NOT MET
55     G44K             MET
56      L6H         NOT MET
57      E3N         NOT MET
58     K22H             MET
59     L30T             MET
60     L43I             MET
61      E3P         NOT MET
62     T32Q             MET
63     L28N         NOT MET
64      E3I         NOT MET
65     C31A             MET
66      L2H         NOT MET
67     S59M             MET
68     L30A             MET
69     I41L             MET
70     E21Q             MET
71     L43N             MET
72     G44W             MET
73     V23A         NOT MET
74     C31L             MET
75     D24T             MET
76      D5G         NOT MET
77     R34P             MET
78     F15H             MET
79     T55Y             MET
80     K48R             MET
81     V23D             MET
82     N51R             MET
83     E19V             MET
84     K25H             MET
85      D5M             MET
86     D24K             MET
87     E19N             MET
88     E13R         NOT MET
89      T1P         NOT MET
